target: human MASP1 (Homo sapiens (Human)); experiment: Biochemical human MASP1 assay (FRET substrate); settings: Average IC50; recombinant human MASP1; read-out: human MASP1 IC50
Sequence (P48740 other isoform, or with tags, fused parts or gaps): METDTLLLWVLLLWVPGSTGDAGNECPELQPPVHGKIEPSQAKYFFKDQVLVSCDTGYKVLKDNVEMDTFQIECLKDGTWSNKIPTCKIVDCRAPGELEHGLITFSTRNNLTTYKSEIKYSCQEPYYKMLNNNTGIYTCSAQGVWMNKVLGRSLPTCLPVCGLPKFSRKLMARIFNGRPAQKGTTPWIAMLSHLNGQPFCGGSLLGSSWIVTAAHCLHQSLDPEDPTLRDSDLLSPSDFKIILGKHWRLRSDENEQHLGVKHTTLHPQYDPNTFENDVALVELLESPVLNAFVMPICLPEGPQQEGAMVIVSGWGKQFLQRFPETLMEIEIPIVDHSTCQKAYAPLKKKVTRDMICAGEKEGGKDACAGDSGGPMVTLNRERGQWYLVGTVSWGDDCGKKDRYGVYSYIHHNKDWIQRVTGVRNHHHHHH
Where a SMILES comes first, the peptide text is derived from it. Bridges are numbered along the chain shown (N, C = ends). [ ]: non-standard residue; d: D form. Oic = O=C(O)[C@@H]1C[C@@H]2CCCC[C@@H]2N1; tBuAla = CC(C)(C)C[C@H](N)C(=O)O; Pen = CC(C)(S)[C@H](N)C(=O)O; Ahx = NCCCCCC(=O)O
value-type: IC50 (nM)
Please state the figure in nM; there is no need to write the unit.

# query: IC50 | item CC[C@H](C)[C@@H]1NC(=O)[C@H]2NC(=O)[C@H]([C@@H](C)CC)NC(=O)[C@@H]3CCCN3C(=O)[C@@H]3CCCN3C(=O)[C@H](CC(C)(C)C)NC(=O)[C@H](CO)NC(=O)[C@H](CCCNC(=N)N)NC(=O)[C@H](CO)NC(=O)[C@H](CSSC2(C)C)NC(=O)[C@H]([C@@H](C)CC)NC(=O)[C@@H](N)CCCCNC1=O [Example 67] (H-KICSRS[tBuAla]PPI[Pen]I; lactam 1-C; disulfide 3-11) | system: human MASP1 (Homo sapiens (Human))
3.25

Consider the record given below.
# returns recorded IC50 (system: human MASP1 (Homo sapiens (Human))) for CC[C@H](C)[C@@H]1NC(=O)[C@@H](C)NC(=O)CCCCCNC(=O)CC[C@@H](C(N)=O)NC(=O)[C@@H]2CCCN2C(=O)[C@H]([C@@H](C)CC)NC(=O)[C@H]2NC(=O)[C@H]([C@@H](C)CC)NC(=O)[C@@H]3C[C@@H]4CCCC[C@@H]4N3C(=O)[C@@H]3CCCN3C(=O)[C@H](CC(C)C)NC(=O)[C@H](CO)NC(=O)[C@H](CCCNC(=N)N)NC(=O)[C@H](CO)NC(=O)[C@H](CSSC2(C)C)NC1=O [Example 79] ([Ahx][dA]ICSRSLP[Oic]I[Pen]IPE-NH2; disulfide 4-12; lactam N-15)
22

###

target: human MASP2 (Homo sapiens (Human), UniProt O00187); experiment: Biochemical human MASP2 assay (FRET substrate); details: Average IC50; recombinant human MASP2; read-out: human MASP2 IC50
Sequence (O00187 other isoform, or with tags, fused parts or gaps): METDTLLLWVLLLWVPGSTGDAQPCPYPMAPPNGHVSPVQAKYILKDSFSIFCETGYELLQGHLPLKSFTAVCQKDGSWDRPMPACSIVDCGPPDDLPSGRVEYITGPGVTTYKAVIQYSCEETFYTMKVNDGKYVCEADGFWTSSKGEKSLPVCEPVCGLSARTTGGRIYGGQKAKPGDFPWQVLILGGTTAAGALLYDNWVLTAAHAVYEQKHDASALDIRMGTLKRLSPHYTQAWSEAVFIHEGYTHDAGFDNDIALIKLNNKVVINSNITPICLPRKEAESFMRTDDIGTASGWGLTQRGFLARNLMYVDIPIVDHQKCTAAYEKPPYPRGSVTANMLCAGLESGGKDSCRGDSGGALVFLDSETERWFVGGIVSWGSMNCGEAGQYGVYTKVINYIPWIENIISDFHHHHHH
*1 amine or outer side, *2 acyl side, *3 side chain or, on linkers, in order; H or OH if unused. Where a SMILES comes first, the peptide text is derived from it. Bridges are numbered along the chain shown (N, C = ends). [ ]: non-standard residue; d: D form. X6 = O=C(CCC(=O)[*:1])NCCCOCCOCCOCCCN[*:2]; Oic = O=C(O)[C@@H]1C[C@@H]2CCCC[C@@H]2N1; tBuAla = CC(C)(C)C[C@H](N)C(=O)O; Pen = CC(C)(S)[C@H](N)C(=O)O; Abu = CC[C@H](N)C(=O)O; Dap = NC[C@H](N)C(=O)O; Ahx = NCCCCCC(=O)O
Some compounds, each annotated with its measured pIC50.
pIC50 field: float, defined as -log10 of concentration (mol/L).

Using the record for CC[C@H](C)[C@@H]1NC(=O)[C@H](C)NC(=O)CCCCCNC(=O)CC[C@@H](C(N)=O)NC(=O)[C@@H]2CCCN2C(=O)[C@H]([C@@H](C)CC)NC(=O)[C@H]2NC(=O)[C@H]([C@@H](C)CC)NC(=O)[C@@H]3C[C@@H]4CCCC[C@@H]4N3C(=O)[C@@H]3CCCN3C(=O)[C@H](CC(C)C)NC(=O)[C@H](CO)NC(=O)[C@H](CCCNC(=N)N)NC(=O)[C@H](CO)NC(=O)[C@H](CSSC2(C)C)NC1=O [Example 74] ([Ahx]AICSRSLP[Oic]I[Pen]IPE-NH2; disulfide 4-12; lactam N-15) , report its pIC50.
6.80

Data request, read-out pIC50, for CC[C@@H]1NC(=O)CCCCCNC(=O)[C@H](CC(=O)O)NC(=O)[C@@H]2CCCN2C(=O)[C@H]([C@@H](C)CC)NC(=O)[C@H]2NC(=O)[C@H]([C@@H](C)CC)NC(=O)[C@@H]3CCCN3C(=O)[C@@H]3CCCN3C(=O)[C@H](CC(C)(C)C)NC(=O)[C@H](CO)NC(=O)[C@H](CCCNC(=N)N)NC(=O)[C@H](CO)NC(=O)[C@H](CSSC2(C)C)NC(=O)[C@H]([C@@H](C)CC)NC1=O [Example 38] (cyclo([Abu]ICSRS[tBuAla]PPI[Pen]IPD[Ahx]); disulfide 3-11)
7.36

Look up pIC50: CC[C@H](C)[C@@H]1NC(=O)[C@H](C)NC(=O)CCC(=O)NCCCOCCOCCOCCCNC(=O)[C@H](CC(=O)O)NC(=O)[C@@H]2CCCN2C(=O)[C@H]([C@@H](C)CC)NC(=O)[C@H]2NC(=O)[C@H]([C@@H](C)CC)NC(=O)[C@@H]3CCCN3C(=O)[C@@H]3CCCN3C(=O)[C@H](CC(C)(C)C)NC(=O)[C@H](CO)NC(=O)[C@H](CCCNC(=N)N)NC(=O)[C@H](CO)NC(=O)[C@H](CSSC2(C)C)NC1=O [Example 63] (AICSRS[tBuAla]PPI[Pen]IPD; disulfide 3-11; linker N-C via X6)
6.77

# get_value(readout='pIC50', item= CC[C@H](C)[C@@H]1NC(=O)CNC(=O)[C@H](CN)NC(=O)[C@H](CN)NC(=O)[C@H](CC(=O)O)NC(=O)[C@@H]2CCCN2C(=O)[C@H]([C@@H](C)CC)NC(=O)[C@@H]2CSSC[C@H](NC1=O)C(=O)N[C@@H](CO)C(=O)N[C@@H](CCCNC(=N)N)C(=O)N[C@@H](CO)C(=O)N[C@@H](CC(C)C)C(=O)N1CCC[C@H]1C(=O)N1CCC[C@H]1C(=O)N[C@@H]([C@@H](C)CC)C(=O)N2 [Example 23] (cyclo(CIPD[Dap][Dap]GICSRSLPPI); disulfide 1-9) )
7.70

What pIC50 value was documented for this compound, CC[C@H](C)[C@@H]1NC(=O)CCCCCNC(=O)CC[C@@H](C(N)=O)NC(=O)[C@@H]2CCCN2C(=O)[C@H]([C@@H](C)CC)NC(=O)[C@H]2NC(=O)[C@H]([C@@H](C)CC)NC(=O)[C@@H]3C[C@@H]4CCCC[C@@H]4N3C(=O)[C@@H]3CCCN3C(=O)[C@H](CC(C)C)NC(=O)[C@H](CO)NC(=O)[C@H](CCCNC(=N)N)NC(=O)[C@H](CO)NC(=O)[C@H](CSSC2(C)C)NC1=O [Example 75] ([Ahx]ICSRSLP[Oic]I[Pen]IPE-NH2; disulfide 3-11; lactam N-14) ?
7.85

Next:
Please look up its pIC50: CC[C@H](C)[C@@H]1NC(=O)CNC(=O)[C@@H](N)CCC(=O)NCCCC[C@@H](C(N)=O)NC(=O)[C@@H]2CCCN2C(=O)[C@H]([C@@H](C)CC)NC(=O)[C@H]2NC(=O)[C@H]([C@@H](C)CC)NC(=O)[C@@H]3C[C@@H]4CCCC[C@@H]4N3C(=O)[C@@H]3CCCN3C(=O)[C@H](CC(C)C)NC(=O)[C@H](CO)NC(=O)[C@H](CCCNC(=N)N)NC(=O)[C@H](CO)NC(=O)[C@H](CSSC2(C)C)NC1=O [Example 90] (H-EGICSRSLP[Oic]I[Pen]IPK-NH2; lactam 1-15; disulfide 4-12)
6.96

What pIC50 value was documented for this compound, CC[C@H](C)[C@@H]1NC(=O)[C@H](C)NC(=O)CCCCCNC(=O)[C@@H]2CCCN2C(=O)[C@H]([C@@H](C)CC)NC(=O)[C@H]2NC(=O)[C@H]([C@@H](C)CC)NC(=O)[C@@H]3CCCN3C(=O)[C@@H]3CCCN3C(=O)[C@H](CC(C)(C)C)NC(=O)[C@H](CO)NC(=O)[C@H](CCCNC(=N)N)NC(=O)[C@H](CO)NC(=O)[C@H](CSSC2(C)C)NC1=O [Example 53] (cyclo(AICSRS[tBuAla]PPI[Pen]IP[Ahx]); disulfide 3-11) ?
7.08

Requested field: pIC50. Item: CC[C@H](C)[C@@H]1NC(=O)CCCNC(=O)[C@H](CC(=O)O)NC(=O)[C@@H]2CCCN2C(=O)[C@H]([C@@H](C)CC)NC(=O)[C@@H]2CSSC[C@H](NC1=O)C(=O)N[C@@H](CO)C(=O)N[C@@H](CCCNC(=N)N)C(=O)N[C@@H](CO)C(=O)N[C@@H](CC(C)(C)C)C(=O)N1CCC[C@H]1C(=O)N1CCC[C@H]1C(=O)N[C@@H]([C@@H](C)CC)C(=O)N2C [Example 36]
6.96

What value of pIC50 has been reported for the following compound? CC[C@H](C)[C@@H]1NC(=O)[C@H](CN)NC(=O)[C@H](CN)NC(=O)[C@H]([C@@H](C)CC)NC(=O)[C@H]2NC(=O)[C@H]([C@@H](C)CC)NC(=O)[C@@H]3CCCN3C(=O)[C@@H]3CCCN3C(=O)[C@H](CC(C)(C)C)NC(=O)[C@H](CO)NC(=O)[C@H](CCCNC(=N)N)NC(=O)[C@H](CO)NC(=O)[C@H](CSSC2(C)C)NC1=O [Example 57] (cyclo(CSRS[tBuAla]PPI[Pen]I[Dap][Dap]I); disulfide 1-9)
6.47
